Tested on: Fusarium culmorum
Test: Activity against Fusarium culmorum (Fusacu), microtiter plate test
Format: cell-based
Details: Fusarium culmorum, 168 h, relative growth vs active compound-free control (100%), measured at 405 nm 7 days after the inoculation
Please respond with reported activity at 31 ppm for every item in the list.
Respond numerically; units are % and should not be typed.

The value of activity at 31 ppm recorded for FC(F)Oc1ccc2[nH]cc(-c3sccc3C(F)(F)F)c2n1 [Example P5] when tested on Fusarium culmorum reads 0

The value of activity at 31 ppm recorded for N#Cc1ccc2[nH]cc(-c3sccc3Br)c2c1 [Example P4] when tested on Fusarium culmorum reads 17

The value of activity at 31 ppm recorded for Brc1ccc2[nH]cc(-c3sccc3Br)c2c1 [Example P3] when tested on Fusarium culmorum reads 0

The value of activity at 31 ppm recorded for C#Cc1cnc2[nH]cc(-c3ocnc3C(F)F)c2c1 [Example P10] when tested on Fusarium culmorum reads 6

The value of activity at 31 ppm recorded for Clc1ccsc1-c1c[nH]c2ccc(Br)cc12 [Example P1] when tested on Fusarium culmorum reads 1

The value of activity at 31 ppm recorded for Fc1cnc2[nH]cc(-c3ocnc3I)c2c1 [Example 9] when tested on Fusarium culmorum reads 11

The value of activity at 31 ppm recorded for Fc1ncc2[nH]cc(-c3sccc3C(F)(F)F)c2n1 [Example P17] when tested on Fusarium culmorum reads 14

The value of activity at 31 ppm recorded for Fc1cnc2[nH]cc(-c3ocnc3C(F)(F)F)c2c1 [Example 8] when tested on Fusarium culmorum reads 6

The value of activity at 31 ppm recorded for C#Cc1ccc2[nH]cc(-c3sccc3Cl)c2c1 [Example P2] when tested on Fusarium culmorum reads 1

The value of activity at 31 ppm recorded for C#Cc1cnc2[nH]cc(-c3ocnc3Br)c2c1 [Example P8] when tested on Fusarium culmorum reads 0

The value of activity at 31 ppm recorded for N#Cc1ccc2[nH]cc(-c3ocnc3C(F)(F)F)c2c1 [Example 2] when tested on Fusarium culmorum reads 7

The value of activity at 31 ppm recorded for C#Cc1cnc2[nH]cc(-c3ocnc3C(F)(F)F)c2c1 [Example 6] when tested on Fusarium culmorum reads 1
